molecular target: MASP-2 CCP2-SP (Homo sapiens (Human)); assay: MASP-2 co-crystallization, X-ray crystallography and structure analysis (H-bonds, van der Waals contacts); details: Table A6-2 pharmacophore angle
Where a name gives a salt, the structure may show the parent alone.
ENDPOINT: a(O1, O2, H3)
Response field accepts a number only; no unit should be typed.

Would you please look over these solved cases?
COMPOUND | a(O1, O2, H3)
Cc1nc(N)ccc1CNC(=O)C(C)NC(=O)C1CC(c2cccc3ccccc23)CCN1.Cl.Cl (centres unmarked) [1297_3] | 143.41
N=C(N)c1ccc(CNC(=O)[C@@H]2CCN2C(=O)[C@H](NCC(=O)O)C2Cc3ccccc3C2)cc1 | 122.63
Cc1nc(N)ccc1CNC(=O)[C@H](C)NC(=O)[C@H]1C[C@@H](c2cccc3ccccc23)CCN1.Cl.Cl [1297_4] | 145.24
C[C@H](NC(=O)[C@H](N)CCCc1ccccc1)C(=O)NCc1ccc(C(=N)N)cc1.Cl.Cl [1042_2] | 152.56
C[C@H](NC(=O)[C@@H](CCc1ccccc1)NCc1ccc(N2CCOCC2)cc1)C(=O)NCc1ccc(C(=N)N)cc1 | 54.88
C[C@H](NC(=O)C1C[C@@H](c2ccccc2)CCN1)C(=O)NCc1ccc(C(=N)N)cc1 (stereo in doubt) | 157.64

// query Please provide the recorded a(O1, O2, H3) for C[C@H](NC(=O)[C@H]1C[C@H](Cc2ccccc2)CN1)C(=O)NCc1cc(Cl)ccc1-n1cnnn1 [compound 1371, Hydrochloride] , tested on MASP-2 CCP2-SP (Homo sapiens (Human)).
// result 136.64

// query Please provide the recorded a(O1, O2, H3) for Cc1nc(N)ccc1CNC(=O)[C@H](C)NC(=O)[C@H]1C[C@@H](c2ccccc2)CCN1 [compound 1253, Dihydrochloride] , tested on MASP-2 CCP2-SP (Homo sapiens (Human)).
// result 134.57

// query Please provide the recorded a(O1, O2, H3) for C[C@H](NC(=O)[C@H]1C[C@H](Cc2ccccc2)CN1)C(=O)NCc1ccc(C(=N)N)cc1.Cl.Cl [1306_1] , tested on MASP-2 CCP2-SP (Homo sapiens (Human)).
// result 152.11

// query Please provide the recorded a(O1, O2, H3) for C[C@H](NC(=O)[C@H]1C[C@@H](c2ccccc2)CCN1)C(=O)NCc1cc(Cl)ccc1O.Cl [1078_5] , tested on MASP-2 CCP2-SP (Homo sapiens (Human)).
// result 138.56

// query Please provide the recorded a(O1, O2, H3) for C[C@H](NC(=O)[C@H](N)CCc1ccccc1)C(=O)NCc1ccc(N)nc1.Cl.Cl [1007_1] , tested on MASP-2 CCP2-SP (Homo sapiens (Human)).
// result 146.43

// query Please provide the recorded a(O1, O2, H3) for C[C@H](NC(=O)[C@H]1C[C@@H](c2ccccc2)CCN1)C(=O)NCc1cc(Cl)ccc1O.Cl [1078_13] , tested on MASP-2 CCP2-SP (Homo sapiens (Human)).
// result 135.66

// query Please provide the recorded a(O1, O2, H3) for "C[C@H](NC(=O)[C@H](N)CCc1cc(Cl)cc(Cl)c1)C(=O)NCc1ccc(C(=N)N)cc1" , tested on MASP-2 CCP2-SP (Homo sapiens (Human)).
// result 152.79

// query Please provide the recorded a(O1, O2, H3) for Cc1nc(N)ccc1CNC(=O)[C@H](C)NC(=O)[C@H]1C[C@@H](c2cccc3ccccc23)CCN1.Cl.Cl [1297_5] , tested on MASP-2 CCP2-SP (Homo sapiens (Human)).
// result 146.79

// query Please provide the recorded a(O1, O2, H3) for "Cc1nc(N)ccc1CNC(=O)[C@H](C)NC(=O)[C@H]1C[C@@H](c2ccccc2)CCN1C" , tested on MASP-2 CCP2-SP (Homo sapiens (Human)).
// result 145.43

// query Please provide the recorded a(O1, O2, H3) for Cc1nc(N)ccc1CNC(=O)[C@H](C)NC(=O)[C@H]1C[C@H](Cc2cccc(Cl)c2)CN1.Cl.Cl [1328_1] , tested on MASP-2 CCP2-SP (Homo sapiens (Human)).
// result 150.01

// query Please provide the recorded a(O1, O2, H3) for C[C@H](NC(=O)[C@H]1C[C@@H](c2ccccc2)CCN1)C(=O)NCc1ccc(C(=N)N)cc1 (stereo in doubt) , tested on MASP-2 CCP2-SP (Homo sapiens (Human)).
// result 145.76

// query Please provide the recorded a(O1, O2, H3) for Cc1nc(N)ccc1CNC(=O)[C@H](C)NC(=O)[C@H]1C[C@@H](c2cccc3ccccc23)CCN1.Cl.Cl [1297_2] , tested on MASP-2 CCP2-SP (Homo sapiens (Human)).
// result 144.48

// query Please provide the recorded a(O1, O2, H3) for C[C@H](NC(=O)[C@H]1Cc2c([nH]c3ccccc23)CN1)C(=O)NCc1ccc(C(=N)N)cc1.Cl.Cl [1097_1] , tested on MASP-2 CCP2-SP (Homo sapiens (Human)).
// result 152.91

// query Please provide the recorded a(O1, O2, H3) for Cc1cccc([C@H]2CN[C@@H](C(=O)N[C@@H](C)C(=O)NCc3ccc(N)nc3C)C2)c1 [compound 1257, Dihydrochloride] , tested on MASP-2 CCP2-SP (Homo sapiens (Human)).
// result 132.63

// query Please provide the recorded a(O1, O2, H3) for "C[C@H](NC(=O)[C@H](N)C1Cc2ccccc2C1)C(=O)NCc1ccc2nc(N)[nH]c2c1" , tested on MASP-2 CCP2-SP (Homo sapiens (Human)).
// result 148.70

// query Please provide the recorded a(O1, O2, H3) for Cc1nc(N)ccc1CNC(=O)[C@H](C)NC(=O)[C@H]1C[C@H](Cc2cccc(Cl)c2)CN1.Cl.Cl [1328_4] , tested on MASP-2 CCP2-SP (Homo sapiens (Human)).
// result 150.66

// query Please provide the recorded a(O1, O2, H3) for Cc1nc(N)ccc1CNC(=O)C(C)NC(=O)C1CC(c2cccc3ccccc23)CCN1.Cl.Cl (centres unmarked) [1297_1] , tested on MASP-2 CCP2-SP (Homo sapiens (Human)).
// result 144.22

###

molecular target: MASP-2 CCP2-SP (Homo sapiens (Human), UniProt O00187); experiment: MASP-2 co-crystallization, X-ray crystallography and structure analysis (H-bonds, van der Waals contacts); conditions: Table A8-6; pharmacophore elements C6, CA3, O3, H1; nearest protein atom in cell to the left
Sequence (O00187 445-686): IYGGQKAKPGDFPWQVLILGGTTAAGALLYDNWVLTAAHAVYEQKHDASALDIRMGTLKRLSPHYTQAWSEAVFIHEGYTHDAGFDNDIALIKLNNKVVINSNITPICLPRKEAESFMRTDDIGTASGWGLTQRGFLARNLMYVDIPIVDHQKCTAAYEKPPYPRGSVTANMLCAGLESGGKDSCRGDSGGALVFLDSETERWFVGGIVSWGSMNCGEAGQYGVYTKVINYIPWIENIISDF
Sequence (O00187 364-432 partner): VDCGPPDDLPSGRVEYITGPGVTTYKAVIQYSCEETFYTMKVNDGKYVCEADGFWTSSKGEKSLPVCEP
ENDPOINT: Pharmacophore protein distance to TRP_655
Response field accepts a number only; no unit should be typed.

COMPOUND | TEST VALUE
C[C@H](NC(=O)[C@H](N)C1Cc2ccccc2C1)C(=O)NCc1ccc2nc(N)[nH]c2c1 [compound 1059] | 3.64
N=C(N)c1ccc(CNC(=O)[C@@H]2CCN2C(=O)[C@H](NCC(=O)O)C2Cc3ccccc3C2)cc1 [compound 1129] | 3.31
C[C@H](NC(=O)[C@H]1C[C@@H](c2ccccc2)CN1)C(=O)NCc1ccc2c(N)nccc2c1.Cl.Cl [1089_A] | 3.57
CNC(=O)c1ccc2c(=O)n(Cc3ccccc3)c(=O)n(CC(=O)NCc3ccc(C(=N)N)cc3)c2c1 [compound 2018] | 3.77

Now look at this one.
// query Please provide the recorded Pharmacophore protein distance to TRP_655 for C[C@H](NC(=O)[C@@H](CCc1ccccc1)NCc1ccc(C(=O)N2CCOCC2)cc1)C(=O)NCc1ccc(C(=N)N)cc1.Cl.Cl [1153_B] , tested on MASP-2 CCP2-SP (Homo sapiens (Human), UniProt O00187).
// result 3.42

###

# maps each entry to its d(O2,N2)
molecular target: MASP-2 CCP2-SP (Homo sapiens (Human), UniProt O00187); experiment: MASP-2 co-crystallization, X-ray crystallography and structure analysis (H-bonds, van der Waals contacts); conditions: Table A5-2 pharmacophore distance, S3/S4 region
Counter-ions that a name gives are not always drawn.
Response field accepts a number only; no unit should be typed.

Would you please look over these solved cases?
COMPOUND | SYSTEM UNDER TEST | d(O2,N2)
Cc1nc(N)ccc1CNC(=O)[C@H](C)NC(=O)[C@H]1C[C@@H](c2ccccc2)CCN1C | MASP-2 CCP2-SP (Homo sapiens (Human), UniProt O00187) | 2.72
C[C@H](NC(=O)[C@H]1C[C@@H](c2ccccc2)CCN1)C(=O)NCc1cc(Cl)ccc1O.Cl [1078_1] | MASP-2 CCP2-SP (Homo sapiens (Human), UniProt O00187) | 2.77
Cc1nc(N)ccc1CNC(=O)[C@H](C)NC(=O)[C@H]1C[C@H](Cc2ccccc2-c2ccccc2)CN1 [compound 1373, Di-trifluoroacetate salt] | MASP-2 CCP2-SP (Homo sapiens (Human), UniProt O00187) | 2.65
CC(=O)Nc1ccc(CCNC(CCc2ccccc2)C(=O)NC(C)C(=O)NCc2ccc(C(=N)N)cc2)cc1.Cl.Cl (centres unmarked) [1345_2] | MASP-2 CCP2-SP (Homo sapiens (Human), UniProt O00187) | 2.87
C[C@H](NC(=O)[C@H]1C[C@@H](c2ccccc2)CCN1)C(=O)NCc1cc(Cl)ccc1O.Cl [1078_14] | MASP-2 CCP2-SP (Homo sapiens (Human), UniProt O00187) | 2.77
C[C@H](NC(=O)[C@@H](CCc1ccccc1)NCc1ccc(N2CCOCC2)cc1)C(=O)NCc1ccc(C(=N)N)cc1 | MASP-2 CCP2-SP (Homo sapiens (Human), UniProt O00187) | 4.42
C[C@H](NC(=O)[C@H]1C[C@@H](c2ccccc2)CCN1)C(=O)NCc1cc(Cl)ccc1O.Cl [1078_9] | MASP-2 CCP2-SP (Homo sapiens (Human), UniProt O00187) | 2.89
Cc1nc(N)ccc1CNC(=O)[C@H](C)NC(=O)[C@H]1C[C@H](Cc2cc(-c3ccccc3)cs2)CN1 [compound 1399, Dihydrochloride] | MASP-2 CCP2-SP (Homo sapiens (Human), UniProt O00187) | 2.67
CC(NC(=O)C(CCc1ccccc1)NCc1ccc(C(=O)N2CCOCC2)cc1)C(=O)NCc1ccc(C(=N)N)cc1.Cl.Cl (centres unmarked) | MASP-2 CCP2-SP (Homo sapiens (Human), UniProt O00187) | 2.88
C[C@H](NC(=O)[C@H]1C[C@@H](c2ccccc2)CCN1)C(=O)NCc1cc(Cl)ccc1O.Cl [1078_8] | MASP-2 CCP2-SP (Homo sapiens (Human), UniProt O00187) | 2.85

Now look at this one.
// query Please provide the recorded d(O2,N2) for Cc1nc(N)ccc1CNC(=O)[C@H](C)NC(=O)[C@H]1C[C@@H](c2cccc3ccccc23)CCN1.Cl.Cl [1297_5] , tested on MASP-2 CCP2-SP (Homo sapiens (Human), UniProt O00187).
// result 2.67
